- test: Stability in rat plasma assessed as parent compound remaining at […]
- Format: ADME, cell-free
- experimental_parameters: read-out: Stability

molecule	remaining at 2 h, %
COC(=O)N1CC[C@H]2CC[C@@H](C(=O)N[C@@H](CCC(N)=O)C(=O)N[C@@H](Cc3ccc(F)c(F)c3)C(=O)N3CCC(CCC#Cc4cccc5c4CN(C4CCC(=O)NC4=O)C5=O)CC3)N2C(=O)[C@@H](NC(=O)c2cc3cc(C(F)(F)P(=O)(O)O)ccc3s2)C1 (stereo partly specified)	94

----------
- test: Drug concentration in female CB17 SCID mouse spleen at 5 mg/kg, iv measured at 1 hr by LC-MS/MS analysis
- Format: ADME, organism-based
- experimental_parameters: read-out: Ct
quantity_name: concentration at 1 h (ng/g)

molecule	numeric_readout
COC(=O)N1CC[C@H]2CC[C@@H](C(=O)N[C@@H](CCC(N)=O)C(=O)N[C@@H](Cc3ccc(F)c(F)c3)C(=O)N3CCC(CCC#Cc4cccc5c4CN(C4CCC(=O)NC4=O)C5=O)CC3)N2C(=O)[C@@H](NC(=O)c2cc3cc(C(F)(F)P(=O)(O)O)ccc3s2)C1 (stereo partly specified)	2870

----------
- target_desc: Signal transducer and activator of transcription 3 (Homo sapiens)
pKi: −log10 of the molar value.
quantity_name: pKi

smiles_str	target_desc	numeric_readout
CN1CC[C@H]2CC[C@@H](C(=O)N[C@@H](CCC(N)=O)C(=O)NC(c3ccccc3)c3ccccc3)N2C(=O)[C@@H](NC(=O)c2cc3cc(C(F)(F)P(=O)(O)O)ccc3s2)C1	Signal transducer and activator of transcription 3 (Homo sapiens)	8.22

----------
In this section, each of the compounds is paired with its reported Activity.
- target_desc: Protein cereblon/Signal transducer and activator of transcription 3 (Mus musculus) (UniProt P42227+Q8C7D2)
- test: In-vivo PROTAC activity at STAT3/CRBN in female CB17 SCID mouse assessed as reduction STAT3 level spleen at 10 mg/kg, iv measured at 24 hrs by Western blot analysis
- Assay type: functional, organism-based
- Set-up: scale not given: the % may be the effect or the level left
quantity_name: Activity (%)

compound	quantity_name	result_comparator	numeric_readout
CN1CC[C@H]2CC[C@@H](C(=O)N[C@@H](CCC(N)=O)C(=O)N[C@@H](Cc3ccc(F)c(F)c3)C(=O)N3CCC(CCC#Cc4cccc5c4CN(C4CCC(=O)NC4=O)C5=O)CC3)N2C(=O)[C@@H](NC(=O)c2cc3cc(C(F)(F)P(=O)(O)O)ccc3s2)C1 (some centres undefined)	Activity	=	50
CN1CC[C@H]2CC[C@@H](C(=O)N[C@@H](CCC(N)=O)C(=O)N[C@@H](Cc3ccccc3)C(=O)N3CCC(CCC#Cc4cccc5c4CN(C4CCC(=O)NC4=O)C5=O)CC3)N2C(=O)[C@@H](NC(=O)c2cc3cc(C(F)(F)P(=O)(O)O)ccc3s2)C1 (some centres undefined)	Activity	=	50
CN1CC[C@H]2CC[C@@H](C(=O)N[C@@H](CCC(N)=O)C(=O)N[C@@H](Cc3ccc(F)cc3)C(=O)N3CCC(CCC#Cc4cccc5c4CN(C4CCC(=O)NC4=O)C5=O)CC3)N2C(=O)[C@@H](NC(=O)c2cc3cc(C(F)(F)P(=O)(O)O)ccc3s2)C1 (some centres undefined)	Activity	=	50
COC(=O)N1CC[C@H]2CC[C@@H](C(=O)N[C@@H](CCC(N)=O)C(=O)N[C@@H](Cc3ccc(F)c(F)c3)C(=O)N3CCC(CCC#Cc4cccc5c4CN(C4CCC(=O)NC4=O)C5=O)CC3)N2C(=O)[C@@H](NC(=O)c2cc3cc(C(F)(F)P(=O)(O)O)ccc3s2)C1 (some centres undefined)	Activity	>	90

----------
- test: Drug concentration in female CB17 SCID mouse liver at 5 mg/kg, iv measured at 1 hr by LC-MS/MS analysis
- Format: ADME, organism-based
- experimental_parameters: read-out: Ct

compound	concentration at 1 h / ng/g
COC(=O)N1CC[C@H]2CC[C@@H](C(=O)N[C@@H](CCC(N)=O)C(=O)N[C@@H](Cc3ccc(F)c(F)c3)C(=O)N3CCC(CCC#Cc4cccc5c4CN(C4CCC(=O)NC4=O)C5=O)CC3)N2C(=O)[C@@H](NC(=O)c2cc3cc(C(F)(F)P(=O)(O)O)ccc3s2)C1 (stereo partly specified)	5850

----------
In this section, each of the molecules is paired with its reported DC50.
- target_desc: Protein cereblon/Signal transducer and activator of transcription 3 (Homo sapiens, UniProt P40763+Q96SW2)
- test: PROTAC activity at his-SUMO-tagged STAT3 (127 to 688 residues)/CRBN in human HeLa cells assessed as induction of STAT3 degradation incubated for 24 hrs by TECAN SPARK microplate reader analysis
- Assay type: cell-based
quantity_name: DC50 (µM)

molecule	result_comparator	numeric_readout
CC(=O)N1CC[C@H]2CC[C@@H](C(=O)N[C@@H](CCC(N)=O)C(=O)N[C@@H](Cc3ccc(F)c(F)c3)C(=O)N3CCC(CCC#Cc4cccc5c4CN(C4CCC(=O)NC4=O)C5=O)CC3)N2C(=O)[C@@H](NC(=O)c2cc3cc(C(F)(F)P(=O)(O)O)ccc3s2)C1 (stereo partly drawn)	=	1.6
CC(C)N1CC[C@H]2CC[C@@H](C(=O)N[C@@H](CCC(N)=O)C(=O)N[C@@H](Cc3ccc(F)c(F)c3)C(=O)N3CCC(CCC#Cc4cccc5c4CN(C4CCC(=O)NC4=O)C5=O)CC3)N2C(=O)[C@@H](NC(=O)c2cc3cc(C(F)(F)P(=O)(O)O)ccc3s2)C1 (stereo partly drawn)	=	0.5
CN1CC[C@H]2CC[C@@H](C(=O)N[C@@H](CCC(N)=O)C(=O)N[C@H](C(=O)NCCCCC#Cc3cccc4c3CN(C3CCC(=O)NC3=O)C4=O)c3ccccc3)N2C(=O)[C@@H](NC(=O)c2cc3cc(C(F)(F)P(=O)(O)O)ccc3s2)C1 (stereo partly drawn)	>	5
CN1CC[C@H]2CC[C@@H](C(=O)N[C@@H](CCC(N)=O)C(=O)N[C@H](C(=O)N3CCN(CCC#Cc4cccc5c4CN(C4CCC(=O)NC4=O)C5=O)CC3)c3ccccc3)N2C(=O)[C@@H](NC(=O)c2cc3cc(C(F)(F)P(=O)(O)O)ccc3s2)C1 (stereo partly drawn)	=	2.5
CN1CC[C@H]2CC[C@@H](C(=O)N[C@@H](CCC(N)=O)C(=O)N[C@](C)(C(=O)N3CCC(CCC#Cc4cccc5c4CN(C4CCC(=O)NC4=O)C5=O)CC3)c3ccccc3)N2C(=O)[C@@H](NC(=O)c2cc3cc(C(F)(F)P(=O)(O)O)ccc3s2)C1 (stereo partly drawn)	>	5
CN1CC[C@H]2CC[C@@H](C(=O)N[C@@H](CCC(N)=O)C(=O)N[C@H](C(=O)NCCCCCC#Cc3cccc4c3CN(C3CCC(=O)NC3=O)C4=O)c3ccccc3)N2C(=O)[C@@H](NC(=O)c2cc3cc(C(F)(F)P(=O)(O)O)ccc3s2)C1 (stereo partly drawn)	>	5
CN1CC[C@H]2CC[C@@H](C(=O)N[C@@H](CCC(N)=O)C(=O)N[C@H](C(=O)N3CCC(CCC#Cc4cccc5c4CN(C4CCC(=O)NC4=O)C5=O)CC3)C3CCCCC3)N2C(=O)[C@@H](NC(=O)c2cc3cc(C(F)(F)P(=O)(O)O)ccc3s2)C1 (stereo partly drawn)	=	0.26
CN1CC[C@H]2CC[C@@H](C(=O)N[C@@H](CCC(N)=O)C(=O)N[C@H](CCC(=O)N3CCC(C#Cc4cccc5c4CN(C4CCC(=O)NC4=O)C5)CC3)c3ccccc3)N2C(=O)[C@@H](NC(=O)c2cc3cc(C(F)(F)P(=O)(O)O)ccc3s2)C1 (stereo partly drawn)	>	5

----------
- test: Drug concentration in female CB17 SCID mouse plasma at 5 mg/kg, iv measured at 24 hrs by LC-MS/MS analysis
- Type: ADME, organism-based

compound	concentration at 24 h [ng/mL]
COC(=O)N1CC[C@H]2CC[C@@H](C(=O)N[C@@H](CCC(N)=O)C(=O)N[C@@H](Cc3ccc(F)c(F)c3)C(=O)N3CCC(CCC#Cc4cccc5c4CN(C4CCC(=O)NC4=O)C5=O)CC3)N2C(=O)[C@@H](NC(=O)c2cc3cc(C(F)(F)P(=O)(O)O)ccc3s2)C1 (stereo partly specified)	17100

----------
- test: Half life in ICR mouse at 5 mg/kg, iv
- Format: ADME, organism-based
- experimental_parameters: in vivo
In this section, each of the molecules is paired with its reported half-life.

molecule	half-life
COC(=O)N1CC[C@H]2CC[C@@H](C(=O)N[C@@H](CCC(N)=O)C(=O)N[C@@H](Cc3ccc(F)c(F)c3)C(=O)N3CCC(CCC#Cc4cccc5c4CN(C4CCC(=O)NC4=O)C5=O)CC3)N2C(=O)[C@@H](NC(=O)c2cc3cc(C(F)(F)P(=O)(O)O)ccc3s2)C1 (some centres not stated)	22.1 h
CC(=O)N1CC[C@H]2CC[C@@H](C(=O)N[C@@H](CCC(N)=O)C(=O)N[C@@H](Cc3ccc(F)c(F)c3)C(=O)N3CCC(CCC#Cc4cccc5c4CN(C4CCC(=O)NC4=O)C5=O)CC3)N2C(=O)[C@@H](NC(=O)c2cc3cc(C(F)(F)P(=O)(O)O)ccc3s2)C1 (some centres not stated)	16.9 h

// provenance: ChEMBL document CHEMBL6092220
